tested-system: UniProt:P24941
assay-method-text: Enzyme Assay
metric-name: IC50 (µM)

[I] Cc1nc(C)c(-c2ccnc(Nc3cccc(N4CCOCC4)c3)n2)s1
[II] CNc1nc(C)c(-c2ccnc(Nc3ccc(OC)c(C)c3)n2)s1
Problem: Between I and II , which one shows the larger IC50 value? Answer by stating the label of the chosen item.
Solution: I

[I] CNc1nc(C)c(-c2ccnc(Nc3ccc(S(=O)(=O)NCCO)cc3)n2)s1
[II] Cc1nc(N)sc1-c1ccnc(Nc2cccc(S(=O)(=O)NCCO)c2)n1
[III] COc1cc(Nc2nccc(-c3sc(CO)nc3C)n2)ccc1N1CCOCC1
Problem: Arrange by IC50, high to low. // list labels; follow requested order
Solution: III, II, I

[1] CCNc1nc(C)c(-c2ccnc(Nc3cccc(S(=O)(=O)NCC)c3)n2)s1
[2] Cc1nc(N)sc1-c1ccnc(Nc2ccc(S(=O)(=O)NCc3ccccc3)cc2)n1
[3] Cc1nc(N)sc1-c1ccnc(Nc2cccc(CNS(=O)(=O)C(F)(F)F)c2)n1
[4] Cc1nc(NC(C)(C)C)sc1-c1ccnc(Nc2ccc(N3CCOCC3)cc2)n1
Problem: # ascending order, key=IC50 Output spec: labels arranged per the requested ranking.
Solution: 2, 3, 4, 1
